Molecular target: UniProtKB Q99572
Sequence (Q99572 whole entry): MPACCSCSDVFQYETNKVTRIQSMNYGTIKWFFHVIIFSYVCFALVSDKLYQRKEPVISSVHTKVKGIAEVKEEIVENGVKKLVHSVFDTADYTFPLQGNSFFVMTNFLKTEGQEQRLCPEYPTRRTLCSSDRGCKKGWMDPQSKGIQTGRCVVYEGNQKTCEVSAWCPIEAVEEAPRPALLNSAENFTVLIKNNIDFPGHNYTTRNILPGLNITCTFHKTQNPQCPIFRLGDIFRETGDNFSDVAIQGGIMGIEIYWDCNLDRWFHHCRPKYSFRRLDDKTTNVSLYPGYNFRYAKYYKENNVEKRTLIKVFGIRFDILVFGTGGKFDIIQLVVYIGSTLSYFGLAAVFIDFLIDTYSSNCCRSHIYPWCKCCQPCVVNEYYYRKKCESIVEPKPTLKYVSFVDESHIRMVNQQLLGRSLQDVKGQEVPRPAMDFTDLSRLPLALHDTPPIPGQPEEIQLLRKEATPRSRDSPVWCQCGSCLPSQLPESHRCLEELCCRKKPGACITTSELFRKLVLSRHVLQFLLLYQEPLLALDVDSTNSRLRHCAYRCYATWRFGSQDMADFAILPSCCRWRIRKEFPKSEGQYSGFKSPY
Experiment: Antagonist activity at human P2X7 receptor expressed in HEK293 cells assessed as inhibition of BzATP-induced EtBr uptake at 10 uM after 2 hrs by fluorescence assay relative to control
Type: cell-based
The source made the active and inactive calls. The rule behind the calls is not given here.
readout-label: inhibition

These solved cases illustrate the format of a correct answer.
{"molecule-smiles": "COC(=O)c1cc2c(N)cccc2n(Cc2ccc(OC)cc2)c1=O", "result": "inactive"}
{"molecule-smiles": "COC(=O)c1cc2c(NC(=O)CC3CCCCC3)cccc2n(Cc2ccc(OC)cc2)c1=O", "result": "86%"}
{"molecule-smiles": "COC(=O)c1cc2c(NC(=O)C34CC5CC(CC(C5)C3)C4)cccc2n(Cc2ccc(Br)cc2)c1=O", "result": "80%"}
{"molecule-smiles": "COc1ccc(Cn2c(=O)c(C(=O)NCCc3ccccc3)cc3c(N)cccc32)cc1", "result": "inactive"}
{"molecule-smiles": "COC(=O)c1cc2c(NC(=O)Cc3ccccc3)cccc2n(Cc2ccc(OC)cc2)c1=O", "result": "43%"}
{"molecule-smiles": "COC(=O)c1cc2c(NC(=O)C34CC5CC(CC(C5)C3)C4)cccc2n(Cc2cccc(OC)c2)c1=O", "result": "55%"}
{"molecule-smiles": "COc1ccc(Cn2c(=O)c(C(=O)NCCc3ccc(O)c(OC)c3)cc3c(N)cccc32)cc1", "result": "5%"}
{"molecule-smiles": "CCc1ccc(Cn2c(=O)c(C(=O)OC)cc3c(NC(=O)C45CC6CC(CC(C6)C4)C5)cccc32)cc1", "result": "38%"}
{"molecule-smiles": "COc1ccc(CCNC(=O)c2cc3c(NC(=O)COc4ccc(Cl)cc4)cccc3n(Cc3ccc(OC)cc3)c2=O)cc1", "result": "inactive"}
{"molecule-smiles": "O=C(CC12CC3CC(CC(C3)C1)C2)Nc1cccc2nc(-c3ccccc3O)ccc12", "result": "69%"}

Req: Which inhibition is reported for this molecule? CCCC(=O)Nc1cccc2c1cc(C(=O)NCCc1ccccc1)c(=O)n2Cc1ccc(OC)cc1
Resp: inactive

Req: Which inhibition is reported for this molecule? COc1ccc(Cn2c(=O)c(C(=O)NCCc3ccc(C)cc3)cc3c(N)cccc32)cc1
Resp: 4%

Req: Which inhibition is reported for this molecule? COc1ccc(Cn2c(=O)c(C(=O)NCCCc3ccccc3)cc3c(NC(=O)Cc4ccccc4)cccc32)cc1
Resp: inactive

Req: Which inhibition is reported for this molecule? CCc1ccc(CCNC(=O)c2cc3c(N)cccc3n(Cc3ccc(OC)cc3)c2=O)cc1
Resp: inactive

Req: Which inhibition is reported for this molecule? COc1ccc(Cn2c(=O)c(C(=O)O)cc3c(N)cccc32)cc1
Resp: inactive
